- Tested on: P. yoelii liver stage in HepG2-A16-CD81EGFP, imaging
- procedureDetails: exo-erythrocytic parasite development inhibition – imaging, Malaria Box, P. yoelii, HepG2-A16-CD81EGFP, dose response (AID 602156);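 note: infected cells exposed to compound for 48 hours before fixation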
Calls of active or inactive are those of the source. The rule behind the calls is not given here.
Classes used: active, inactive

# molecule, groupLabel
records = [
    ("COc1cccc(C(=O)NC(c2ccccc2OC)c2cc(Cl)c3cccnc3c2O)c1 (centres undefined)", "active"),
    ("Cc1[nH]c2ccccc2c(=O)c1CC=C(Cl)Cl", "active"),
    ("N#CC1=C(N)Oc2c3c(c4ccccc4c2C1c1ccc(F)cc1)C(c1ccc(F)cc1)C(C#N)=C(N)O3 (centres undefined)", "active"),
    ("CCCCCCOc1ccc(NC(=O)c2cccs2)cc1", "active"),
    ("COc1ccc(C2Sc3ccccc3NC3=C2C(=O)c2ccccc23)cc1 (centres undefined)", "active"),
    ("CCOC(=O)C1=C(C)NC2=C(C(=O)C(C(=O)OCC)C(c3ccccc3OC)C2)C1c1cc(OC)c(OC)c(OC)c1 (centres undefined)", "active"),
    ("c1ccc(Cc2cc[n+](Cc3ccccc3)cc2)cc1", "active"),
    ("O=c1c2c([nH]c3ccccc13)CCCC2", "active"),
    ("C=CCN1C(=Cc2cc[n+](C)cc2)Sc2ccccc21", "active"),
    ("Cc1ccc(NC(=O)C2C3C=CC4(O3)C2C(=O)N(CCCN2CCOCC2)C4C(=O)NC2CCCC(C)C2C)cc1Cl (centres undefined)", "inactive"),
    ("COc1ccc(NC(=O)COc2ccccc2C(C)C)c(OC)c1", "inactive"),
    ("CCCCOc1ccc(C2C3CCCC=C3C(C#N)=C(N)C2(C#N)C#N)cc1 (centres undefined)", "inactive"),
    ("Oc1c(C(Nc2ccccn2)c2cccc(Cl)c2Cl)ccc2cccnc12 (centres undefined)", "active"),
    ("Clc1ncnc2ncn(Cc3ccccc3)c12", "inactive"),
    ("CCCCCCCC[n+]1c(C)n(CC)c2cc(C(=O)OCC)ccc21", "active"),
    ("CCOC(=O)c1ccc(NCc2c(C)[nH]c3ccccc3c2=O)cc1", "active"),
    ("Nc1cccc(C(=O)Nc2ccc(Oc3cccc(Oc4ccc(NC(=O)c5cccc(N)c5)cc4)c3)cc2)c1", "active"),
    ("COc1ccccc1Cc1nc2ccccc2nc1SCC(=O)Nc1cccc(C(F)(F)F)c1", "inactive"),
    ("COc1ccc2sc(Nc3nc(-c4ccccn4)cs3)nc2c1", "active"),
    ("OCCNc1nc(Nc2ccc(F)cc2)nc2ccccc12", "active"),
    ("CCN(c1ccccc1)S(=O)(=O)c1ccc(F)c(C(=O)Nc2c(C)cccc2C)c1", "inactive"),
    ("O=c1c2c(nc3cc(-c4ccc(Br)cc4)[nH]n13)CCCC2", "active"),
    ("CCCCCC[P+](N(CCC)CCC)(N(CCC)CCC)N(CCC)CCC", "active"),
    ("COc1ccc(C2CC(=O)C3=C(C2)NC(C)=C(C(=O)OC2CCCC2)C3c2cccc(C)c2)cc1OC (centres undefined)", "active"),
    ("Oc1c(CN2CCN(Cc3ccc4cccnc4c3O)CC2)ccc2cccnc12", "active"),
    ("Cc1cccc(NC(=S)NC2CC3CCCC(C2)N3CCc2ccccc2)c1 (centres undefined)", "active"),
    ("O=C(Nc1ccc(C(F)(F)F)cc1)c1ccc(NCCCN2CCCCCC2)c([N+](=O)[O-])c1", "active"),
    ("CCCCC(=O)NC(c1cccc([N+](=O)[O-])c1)c1ccc2cccnc2c1O (centres undefined)", "active"),
    ("Cc1ccnc(NC(c2ccc3ccccc3c2)c2ccc3cccnc3c2O)c1 (centres undefined)", "active"),
    ("NCC(=O)N1CCn2c(nc(-c3ccccc3)c2Nc2ccc3c(c2)OCO3)C1", "active"),
    ("N#Cc1c2c(c(N3CCN(c4ccccn4)CC3)n3c1nc1ccccc13)CCC2", "inactive"),
    ("COC(=O)C1=C(C)NC2=C(C(=O)CC(c3ccccc3Cl)C2)C1c1ccc([N+](=O)[O-])cc1 (centres undefined)", "active"),
    ("CCCc1c(C)[nH]c2ccccc2c1=O", "active"),
    ("O=C(Nc1ccc(-c2nc3ccc(NC(=O)c4cccc([N+](=O)[O-])c4)cc3[nH]2)cc1)c1cccc([N+](=O)[O-])c1", "inactive"),
    ("CCCC[n+]1ccccc1C=C1Sc2ccccc2N1CC", "active"),
    ("Cc1[nH]c2c(C)cccc2c(=O)c1CC=C(Cl)Cl", "active"),
    ("Cc1cc(NC(c2cccc(Br)c2)c2ccc3cccnc3c2O)no1 (centres undefined)", "active"),
    ("Fc1ccc(Nc2nc(NCc3ccco3)c3ccccc3n2)cc1", "active"),
    ("Cc1ccc(Nc2nc(NCc3ccccc3)c3ccccc3n2)cc1", "active"),
]
